Data provenance is patent US20240245613A1.

# test-protocol: Fluorescence recovery after photobleaching (FRAP) of peptide droplets
# Assay type: physicochemical
# assay-context: FRAP; droplets prepared with 0.5% FITC labeled peptide; calculated from recovery time
measurement-label: Apparent diffusion coefficient D

Here is how some sequences turned out for Apparent diffusion coefficient D.
primary-sequence	result
WGRGRGWPGVGY [WGR-5]	9.27E−15 m^2 sec^−1
WGRGRGRGWPGVGF [WGR-3]	5.52E−14 m^2 sec^−1
WGRGRGRGWPGVGY [WGR-1]	4.518E−14 m^2 sec^−1

Let us move to another entry and its Apparent diffusion coefficient D.
// sample WGRGRGRGWY [WGR-4] , its Apparent diffusion coefficient D was 2.36E−14 m^2 sec^−1
